Below, each of the compounds is paired with its reported viability, T/C value.
- Tested on: 454973-116-R2-J3-PDC spheroids, viability, % test/control
- ASSAY SUMMARY: Anticancer human tumor 454973-116-R2-J3-PDC patient-derived pancreatic carcinoma cell line growth inhibition [GQUAD]
- MEASUREMENT PARAMETERS: second compound 3.16 µM; first compound 0.00316 µM; hits give low values; spheroids with HUVEC and MSC
ENDPOINT: viability, T/C (%)

1) Cn1ncnc1[C@H]1c2n[nH]c(=O)c3cc(F)cc(c23)N[C@@H]1c1ccc(F)cc1 + Cc1[nH]c2ccc(F)cc2c1-c1nc2c3cccnc3c3ncccc3c2[nH]1; 98.5
2) CCc1c2c(nc3ccc(O)cc13)-c1cc3c(c(=O)n1C2)COC(=O)[C@]3(O)CC + CN(C)c1ccc(Nc2c3ccc(NC(=O)CCN4CCCC4)cc3nc3cc(NC(=O)CCN4CCCC4)ccc23)cc1; 30.7
3) Cc1[nH]c2ccccc2c1CCNCc1ccc(/C=C/C(=O)NO)cc1 + CN(C)c1ccc(Nc2c3ccc(NC(=O)CCN4CCCC4)cc3nc3cc(NC(=O)CCN4CCCC4)ccc23)cc1; 86.7
4) CCc1c2c(nc3ccc(O)cc13)-c1cc3c(c(=O)n1C2)COC(=O)[C@]3(O)CC + Cc1cnc(CNC(=O)c2c(=O)c3ccc(N4CCCN(C)CC4)nc3n3c2sc2ccccc23)cn1; 51.9
5) Cn1ncnc1[C@H]1c2n[nH]c(=O)c3cc(F)cc(c23)N[C@@H]1c1ccc(F)cc1 + CN(C)c1ccc(Nc2c3ccc(NC(=O)CCN4CCCC4)cc3nc3cc(NC(=O)CCN4CCCC4)ccc23)cc1; 89.9

----------
Reported viability, T/C by item:
- Tested on: 454973-116-R2-J3-PDC spheroids, viability, % test/control
- ASSAY SUMMARY: Anticancer human tumor 454973-116-R2-J3-PDC cell line growth inhibition [GQUAD];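 note: spheroids exposed to compounds for seven days; 100% = DMSO vehicle control viability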
- MEASUREMENT PARAMETERS: second compound 3.16 µM; first compound 3.16 µM; hits give low values; spheroids with HUVEC and MSC
ENDPOINT: viability, T/C (%)

1) CC1COCCN1c1cc(C2(S(C)(=N)=O)CC2)nc(-c2ccnc3[nH]ccc23)n1 (stereo not drawn) + Cc1cnc(CNC(=O)c2c(=O)c3ccc(N4CCCN(C)CC4)nc3n3c2sc2ccccc23)cn1; 42
2) O=C(c1cc(Cc2n[nH]c(=O)c3ccccc23)ccc1F)N1CCN(C(=O)C2CC2)CC1 + CN(C)c1ccc(Nc2c3ccc(NC(=O)CCN4CCCC4)cc3nc3cc(NC(=O)CCN4CCCC4)ccc23)cc1; 75.2
3) C=CC(=O)N1CCN(c2nc(=O)n(-c3c(C)ccnc3C(C)C)c3nc(-c4c(O)cccc4F)c(F)cc23)C(C)C1 (stereo not drawn) + Cc1[nH]c2ccc(F)cc2c1-c1nc2c3cccnc3c3ncccc3c2[nH]1; 113

----------
Form field: viability, T/C (one value per entry).
- System: 454973-116-R2-J3-PDC spheroids, viability, % test/control
- ASSAY SUMMARY: Anticancer human tumor 454973-116-R2-J3-PDC cell line growth inhibition [GQUAD];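 note: spheroids exposed to compounds for seven days; 100% = DMSO vehicle control viability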
- MEASUREMENT PARAMETERS: second compound 1 µM; first compound 0.316 µM; hits give low values; spheroids with HUVEC and MSC
ENDPOINT: viability, T/C (%)

1. CC1COCCN1c1cc(C2(O)CC3CCC(C2)O3)c2cnn(-c3ccn[nH]3)c2n1 (stereo not given) + Cc1[nH]c2ccc(F)cc2c1-c1nc2c3cccnc3c3ncccc3c2[nH]1; 30.6
2. Cn1ncnc1[C@H]1c2n[nH]c(=O)c3cc(F)cc(c23)N[C@@H]1c1ccc(F)cc1 + CN(C)c1ccc(Nc2c3ccc(NC(=O)CCN4CCCC4)cc3nc3cc(NC(=O)CCN4CCCC4)ccc23)cc1; 64.3
3. CC(=O)O[C@H]1C(=O)[C@@]2(C)[C@H]([C@H](OC(=O)c3ccccc3)[C@]3(O)C[C@H](OC(=O)[C@H](O)[C@@H](NC(=O)c4ccccc4)c4ccccc4)C(C)=C1C3(C)C)[C@]1(OC(C)=O)CO[C@@H]1C[C@@H]2O + CN(C)c1ccc(Nc2c3ccc(NC(=O)CCN4CCCC4)cc3nc3cc(NC(=O)CCN4CCCC4)ccc23)cc1; 6.76
4. C#Cc1c(F)ccc2cc(O)cc(-c3ncc4c(N5CC6CCC(C5)N6)nc(OCC56CCCN5CC(F)C6)nc4c3F)c12 (stereo not given) + Cc1cnc(CNC(=O)c2c(=O)c3ccc(N4CCCN(C)CC4)nc3n3c2sc2ccccc23)cn1; 19
5. COc1ncnc(C2CC2)c1-c1ncc2cnn(Cc3ccc(-c4nc(C(F)(F)F)cn4C(C)C)cc3)c2n1 + Cc1[nH]c2ccc(F)cc2c1-c1nc2c3cccnc3c3ncccc3c2[nH]1; 105
